The following compounds have recorded pIC50 on human FGFR4 protein (460-802 amino acids) (Homo sapiens (Human), UniProt P22455).
Sequence (P22455 460-802): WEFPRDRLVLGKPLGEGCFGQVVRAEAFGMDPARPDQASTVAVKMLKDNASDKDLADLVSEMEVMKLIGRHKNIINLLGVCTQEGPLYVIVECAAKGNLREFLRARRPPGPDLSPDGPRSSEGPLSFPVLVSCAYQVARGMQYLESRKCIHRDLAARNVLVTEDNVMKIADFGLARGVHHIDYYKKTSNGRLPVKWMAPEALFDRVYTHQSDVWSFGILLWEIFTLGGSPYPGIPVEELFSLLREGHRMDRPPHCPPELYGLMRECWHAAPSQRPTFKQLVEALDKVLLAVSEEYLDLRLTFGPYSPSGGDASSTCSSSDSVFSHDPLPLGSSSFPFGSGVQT
pIC50: −log10 of the molar value.

[
  {
    "Compound": "C=CC(=O)Nc1cnn(C)c1-c1n[nH]c2c1CC[C@@H](c1cc(OC)cc(OC)c1F)C2 (single isomer, unassigned) [Compound 302-P1]",
    "Tested Target": "human FGFR4 protein (460-802 amino acids) (Homo sapiens (Human), UniProt P22455)",
    "pIC50": 7.07
  },
  {
    "Compound": "C=CC(=O)Nc1ccc(N2CCN(C)CC2)cc1-c1n[nH]c2c1CC[C@@H](c1c(F)c(OC)cc(OC)c1F)C2 (single isomer, unassigned) [Compound 301-P1]",
    "Tested Target": "human FGFR4 protein (460-802 amino acids) (Homo sapiens (Human), UniProt P22455)",
    "pIC50": 8.47
  },
  {
    "Compound": "C=CC(=O)Nc1cc(Cl)ccc1-c1n[nH]c2c1CC[C@@H](c1c(Cl)c(OC)cc(OC)c1Cl)C2 (single isomer, unassigned) [Compound 289-P2]",
    "Tested Target": "human FGFR4 protein (460-802 amino acids) (Homo sapiens (Human), UniProt P22455)",
    "pIC50": 6.68
  }
]
